- run-description: Plasma DHE after sublingual administration of DHE 45 dosing solution in a monkey
- Assay type: in vivo, Cynomogolius monkey
- measurement-conditions: cynomolgus, monkey, in vivo, 0.5 mg; plasma; sublingual 0.5 mL of 1.0 mg/mL; read-out: Tmax (time point of maximum concentration) (converted)

compound | Tmax
CN1C[C@H](C(=O)N[C@]2(C)O[C@@]3(O)[C@@H]4CCCN4C(=O)[C@H](Cc4ccccc4)N3C2=O)C[C@@H]2c3cccc4[nH]cc(c34)C[C@H]21 [DHE, Dihydroergotamine] | 5 min

====

- run-description: Plasma DHE after sublingual administration of DHE 45 dosing solution in a monkey
- Type: in vivo, Cynomogolius monkey
- measurement-conditions: cynomolgus, monkey, in vivo

compound | half-life
CN1C[C@H](C(=O)N[C@]2(C)O[C@@]3(O)[C@@H]4CCCN4C(=O)[C@H](Cc4ccccc4)N3C2=O)C[C@@H]2c3cccc4[nH]cc(c34)C[C@H]21 [DHE, Dihydroergotamine] | 2.2 h
